run-description: StAR promoter reporter inhibitors, counter-screen for LRH-1 inverse agonist project, cell-based, luminescence, high throughput (AID 651611)
recorded-conditions: StAR promoter luciferase reporter counterscreen, at 3.6 µM, hits give high values
Items are presented alongside their recorded inhibition.
Give the quantity in %, number only.

molecule=COc1ccc(/C=C2\SC(=O)N(CCCC(=O)Nc3ccc(C(=O)O)cc3)C2=O)cc1 obs_value=74.1
molecule=CCN1CCN(/C=N/c2nc3c(s2)CCCC3)CC1 obs_value=-69.4
molecule=c1csc(CCNc2ncnc3sc4c(c23)CCC4)c1 obs_value=10.5

Memo: `N#Cc1cccc(C=C(C(=O)c2ccccc2)c2ccccc2)c1` , reported inhibition: 18.6

Memo: `Cc1cc([N+](=O)[O-])ccc1NC(=O)CSc1nnc(C)n1C` , reported inhibition: -1.6

Memo: `Cc1ccc2ccc3ccc(C)nc3c2n1` , reported inhibition: 77.2

Memo: `CC[n+]1cc(C)ccc1/C=C/c1ccc(N(C)C)cc1` , reported inhibition: 57

Memo: `O=C(Nc1ccon1)c1nc[nH]c1C(=O)NCc1ccccc1` , reported inhibition: 50.5

Memo: `COc1cccc(/C=N/Nc2ncnc3scc(-c4ccccc4)c23)c1O` , reported inhibition: 89.1

Memo: `N#Cc1c(N)c(C#N)c(-c2ccc(O)cc2)c2c1CCCC2` , reported inhibition: 6.6

Memo: `Cc1c(C#N)c(O)n(CCO)c(=O)c1N=Nc1ccccc1` , reported inhibition: 13.4

Memo: `O=C(CSc1n[nH]c(-c2ccccn2)n1)Nc1ccc(Cl)cc1` , reported inhibition: 36.3

Memo: `Cc1cc(C)n2c(Nc3ccc4c(c3)OCCO4)c(-c3cc4ccccc4o3)nc2n1` , reported inhibition: -27.7

Memo: `CC(=O)Nc1ccc(NC(=O)COC(=O)c2ccc([N+](=O)[O-])o2)cc1` , reported inhibition: 12.7

Memo: `CC(C)NC(=O)N1Cc2cc(C(=O)NC3CCCCC3)nc(-c3cccc(-c4cccnc4)c3)c2[C@@H]1CCO` , reported inhibition: 27.6

Memo: `CCC(=O)Nc1ccc(NC(=O)CSc2nc3c(c(=O)n(C)c(=O)n3C)n2CC)cc1` , reported inhibition: 34.6

Memo: `Cc1nn(C)c(C)c1CN(Cc1nc(CCC(C)C)no1)C(C)C` , reported inhibition: 20.7

Memo: `CCOc1ccc(NC(=O)CSc2nc3cccnc3n2CCOC)cc1` , reported inhibition: 21.3

Memo: `Nc1cc2c3c(cccc3c1)C(=O)N(CCN1CCCC1)C2=O` , reported inhibition: 60.5

Memo: `CCN(CC)C1=CC(=[N+]2CCCC2)CC(C)(C)C1` , reported inhibition: 17.4

Memo: `COc1cccc(N2CCN(c3ncnc4c3cnn4-c3ccc(C)cc3C)CC2)c1` , reported inhibition: 83.2

Memo: CNC(=O)c1nc(C)c(C2(C)CC(c3cccc([N+](=O)[O-])c3)=NO2)s1 (stereo not drawn) , reported inhibition: 8.75

Memo: COc1ccc(NC(=O)/C(Cl)=C(/Cl)S(=O)Cc2ccc(Cl)cc2)cn1 (stereo not drawn) , reported inhibition: 58

====

assayed-target: Nuclear receptor subfamily 5 group A member 2 (Homo sapiens) (UniProt O00482)
Sequence (O00482 whole entry, looked up): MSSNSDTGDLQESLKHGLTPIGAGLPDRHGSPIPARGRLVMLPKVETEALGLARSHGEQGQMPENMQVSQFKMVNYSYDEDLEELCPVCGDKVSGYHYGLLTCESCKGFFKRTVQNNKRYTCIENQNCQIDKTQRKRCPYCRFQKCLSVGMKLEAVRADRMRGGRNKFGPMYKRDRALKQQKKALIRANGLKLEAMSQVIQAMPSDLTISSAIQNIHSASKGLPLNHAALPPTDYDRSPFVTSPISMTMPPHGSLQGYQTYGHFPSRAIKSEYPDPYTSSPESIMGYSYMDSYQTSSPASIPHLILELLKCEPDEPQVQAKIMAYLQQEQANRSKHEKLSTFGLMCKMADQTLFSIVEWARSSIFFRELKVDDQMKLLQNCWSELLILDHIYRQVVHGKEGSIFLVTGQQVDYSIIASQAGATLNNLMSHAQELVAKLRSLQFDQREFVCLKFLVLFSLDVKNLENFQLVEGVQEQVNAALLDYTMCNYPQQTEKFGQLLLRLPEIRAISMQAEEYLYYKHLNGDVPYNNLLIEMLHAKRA
run-description: LRH-1 (NR5A2) inverse agonists, retest, confirmation, cell-based, luminescence (AID 651613);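 also: HEK293T cells co-transfected with LRH-1 and StAR promoter luciferase reporter; 0% = vehicle wells and 100% = parental cells lacking receptor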
recorded-conditions: cell-based LRH-1 luciferase reporter, inverse agonism; at 3.6 µM; hits give high values
Hi, to clarify the labels: y covers inhibition from 60% upward, n covers anything below 60%.

Threshold query (inhibition >= 60%) on CC1=C(C(=O)OCc2ccc3c(c2)OCO3)C(c2ccc(F)cc2)NC(=O)N1 (stereo not given)
y
